# assay_overview: chemical genetic growth profiling, strain panel (AID 1159580);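 further: tested at 20 µM; growth read once vehicle control cultures reached saturation at 30 °C; 1 = growth at the plate median or of vehicle wells; lower values mean less growth of the strain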
# condition: S. cerevisiae deletion strains, growth OD, locus YHR094C, strain hxt1
About 2,000 (36%) of roughly 5,500 compounds were called active. Inconclusive results (about 18%) are left out. No stated cut-off is given here; in the data, active means normalized growth mostly below about 0.91 (no sharp cut-off); inconclusive means no clear call, values can overlap the other calls; inactive means mostly above about 0.92. The list shows a part of the results.
Possible outcomes: label 1 for active, label 0 for inactive

[[record]]
compound = "CCCCC[C@H]1C(=O)O[C@H](C)[C@H](NC(=O)c2cccc(NC=O)c2O)C(=O)O[C@@H](C)[C@@H]1OC(=O)CC(C)C"
assigned_category = "label 0"

[[record]]
compound = "COc1ccccc1-c1coc2cc(O)ccc2c1=O"
assigned_category = "label 0"

[[record]]
compound = "NC(=O)c1ccc[n+]([C@@H]2O[C@H](COP(=O)([O-])OP(=O)(O)OC[C@H]3O[C@@H](n4cnc5c(N)ncnc54)[C@H](OP(=O)(O)O)[C@@H]3O)[C@@H](O)[C@H]2O)c1"
assigned_category = "label 0"

[[record]]
compound = "CC[C@@]1(O)C[C@H](O)c2c(cc3c(c2O)C(=O)c2c(O)ccc(O)c2C3=O)[C@H]1C(=O)OC"
assigned_category = "label 1"

[[record]]
compound = "COc1ccc(-c2coc3cc(OC)ccc3c2=O)cc1"
assigned_category = "label 0"

[[record]]
compound = "CCC1(O)CC(OC2CC(N(C)C)C(OC3CC(O)C(OC4CCC(=O)C(C)O4)C(C)O3)C(C)O2)c2c(cc3c(c2O)C(=O)c2c(O)cccc2C3=O)C1C(=O)OC (stereo not drawn)"
assigned_category = "label 0"

[[record]]
compound = "COc1ccc(-c2coc3cc(O)ccc3c2=O)cc1"
assigned_category = "label 0"

[[record]]
compound = "COc1ccc(-c2coc3cc(O)ccc3c2=O)c(OC)c1"
assigned_category = "label 0"

